- method: NCI Yeast Anticancer Drug Screen. Data for the wt1 strain (AID 149);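 also: 0% = growth of vehicle-treated wt1 cultures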
- particulars: S. cerevisiae wt1 strain (SPY 50644) growth inhibition; at 33.0 µM
- Method: Growth inhibition of yeast strains with defined genetic alterations is measured as a screen for potential anti-cancer activity. Selected strains with alterations in DNA damage repair or cell cycle control were exposed to compounds and growth inhibition was measured relative to vehicle treated controls. The strain used in this assay is wt1
The panel holds about 79,000 compounds, 15% with a hit somewhere; the sample as a whole holds those more often. Active and inactive are the calls of the source. Rule as the data show it: active = growth inhibition above about 70%; inactive = the rest.
Outcome field: choose from active, inactive

// below: answered molecules
- molecule: "O=c1ccc(N=Nc2ccccc2)ccc1O"
  group: "active"
- molecule: "O=C1c2c(O)cccc2-c2nn(CCNCCO)c3ccc(NCCNCCO)c1c23"
  group: "inactive"
- molecule: "Cc1cccc(/C=N\\NC(=S)N2CCCCC2)n1"
  group: "active"
- molecule: "O=C(/C=N/O)Nc1cc(Cl)c(Cl)cc1Cl"
  group: "inactive"
- molecule: "Cc1ccc2c(ccc(/C=C/c3ccc(O)c4ncccc34)[n+]2C)c1"
  group: "active"

Exercise: I would be grateful if you could indicate the recorded call for NNC(=S)Nc1cccc2ccccc12 .
Key: inactive

Exercise: I would be grateful if you could indicate the recorded call for O=[N+]([O-])c1c(/C=N/Nc2ccccc2)oc(-c2ccc3c(c2)OCO3)c1-c1ccc2c(c1)OCO2 .
Key: inactive

Exercise: I would be grateful if you could indicate the recorded call for Cc1cccc2c1N=C(C(F)(F)F)CC2=O .
Key: inactive

Exercise: I would be grateful if you could indicate the recorded call for CCOC(=O)C1=C(C)NC(C)=C(C(=O)OCC)C1c1ccc(C)cc1 .
Key: active

Exercise: I would be grateful if you could indicate the recorded call for COc1ccc(/C(C#N)=C/c2ccc(OC)c(OC)c2)cc1 .
Key: inactive

Exercise: I would be grateful if you could indicate the recorded call for Cc1cc(N=C2C=CC(=[N+](C)C)C=C2)c(N)cc1N .
Key: inactive

Exercise: I would be grateful if you could indicate the recorded call for Cc1ccc(N=Nc2ccc(O)c(C)c2)cc1 .
Key: active

Exercise: I would be grateful if you could indicate the recorded call for CCCc1[nH]nc(C(N)=O)c1N=NN(C)C .
Key: inactive

---

- method: NCI Yeast Anticancer Drug Screen. Data for the bub3 strain (AID 167)
- particulars: S. cerevisiae bub3 mutant strain, at 50.0 µM, active compounds read high
- Protocol: Growth inhibition of yeast strains with defined genetic alterations is measured as a screen for potential anti-cancer activity. Selected strains with alterations in DNA damage repair or cell cycle control were exposed to compounds and growth inhibition was measured relative to vehicle treated controls. The strain used in this assay is bub3
The panel holds about 79,000 compounds, 15% with a hit somewhere; the sample as a whole holds those more often.
Measured growth inhibition by item
State the answer as a number, implicitly in %.

Recorded results for 4 molecules are shown here.
- structure.as.smiles: "COC(=O)/C=C1/OC(c2ccc(Br)cc2)=C(Br)C1=O"
  value.unit: "%"
  readout.number: 72.8
- structure.as.smiles: "COc1cc(/C=C/c2sc3ccccc3[n+]2C)ccc1N(C)C"
  value.unit: "%"
  readout.number: 64.5
- structure.as.smiles: "O=c1[nH]cc(/C=N\\Nc2ccccc2)c(=O)[nH]1"
  value.unit: "%"
  readout.number: 82.9
- structure.as.smiles: "COc1ccc(/C(C#N)=C/c2ccc(OC)c(OC)c2)cc1"
  value.unit: "%"
  readout.number: 50.2

The reported value for O=C(N/N=C\c1c(Cl)cccc1Cl)N/N=C/c1c(Cl)cccc1Cl in terms of growth inhibition is 12.2

The reported value for O=C(Nc1ccc2c(c1)Cc1c-2ccc([N+](=O)[O-])c1F)C(F)(F)F in terms of growth inhibition is 8.35

Sourced from PubChem BioAssay (NCI)
